Readout: melting point (°C)

Would you please look over these solved cases?
COc1cc(C(=Cc2ccc(OC(F)(F)F)cc2)C(=O)O)cc(OC)c1OC :: 208
COc1cc(C(=Cc2ccccc2OC(F)(F)F)C(=O)O)cc(OC)c1OC :: 164

A = COc1ccc(C(=Cc2c(Cl)ccc(Cl)c2Cl)C(=O)O)cc1
B = COc1cc(C(=Cc2ccc(C(F)(F)F)cc2)C(=O)O)cc(OC)c1OC
Query block: // returns A or B , whichever has the lower melting point Mark your selection by writing its label.
Result block: A
(A: 174 °C, B: 259 °C)

====

- Tested on: A549 cells
- Assay text: MTT anti-proliferation assay, A549
- Type: cell-based, human
- Test conditions: Homo sapiens, A549, 24 h, average of three determinations
Readout: IC50 (µM)

Example results:
COc1ccc(C(=Cc2ccc(OC(F)(F)F)cc2)C(=O)O)cc1 [compound p] :: 14
COc1cc(C(=Cc2ccc(OC(F)(F)F)cc2)C(=O)O)cc(OC)c1OC [compound f] :: 19
COc1ccc(C(=Cc2cc(C(F)(F)F)ccc2Cl)C(=O)O)cc1 [compound r] :: 3.77

a = COc1cc(C(=Cc2cccc(C(F)(F)F)c2)C(=O)O)cc(OC)c1OC [compound h]
b = COc1cc(C(=Cc2ccc(C(F)(F)F)cc2)C(=O)O)cc(OC)c1OC [compound j]
Query block: Between a and b , whose recorded IC50 is greater? # respond with the chosen item's label
Result block: a

====

- Assay text: MTT cytotoxicity test, LO2
- Format: cell-based, human
- Test conditions: human, LO2 cells (normal human hepatocytes), average of three determinations
Readout: CC50 at 24 h (µM)
Provide only the numeric value, understood in µM.

COc1ccc(C(=Cc2ccc(OC)c(OC)c2Cl)C(=O)O)cc1 [compound t] :: 87

Now examine the next entry.
Query block: Any idea what its CC50 at 24 h is? The compound is COc1cc(C(=Cc2cc(C(F)(F)F)ccc2Cl)C(=O)O)cc(OC)c1OC [compound k]
Result block: 88

====

- Assay text: MTT cytotoxicity test, Vero
- Assay type: cell-based, African green monkey
- Test conditions: African green monkey, Vero cells (normal African green monkey kidney), average of three determinations
Readout: CC50 at 24 h (µM)
The reply should be a number in µM, with the unit left off.

COc1ccc(C(=Cc2ccc(OC(F)(F)F)cc2)C(=O)O)cc1 :: 93
COc1ccc(C(=Cc2c(Cl)ccc(Cl)c2Cl)C(=O)O)cc1 :: 38.6

Below: the item to evaluate.
Query block: # lookup: CC50 at 24 h of COc1cc(C(=Cc2ccc(Cl)c(Cl)c2)C(=O)O)cc(OC)c1OC
Result block: 28.2

====

- Assay text: MTT cytotoxicity test, Vero
- Assay type: cell-based, African green monkey
- Test conditions: African green monkey, Vero cells (normal African green monkey kidney), average of three determinations
Each record here notes measured CC50 at 24 h.
Respond numerically; units are µM and should not be typed.

Query block: Quick one: CC50 at 24 h of COc1cc(C(=Cc2cc(C(F)(F)F)ccc2Cl)C(=O)O)cc(OC)c1OC [compound k] ?
Result block: 71

Query block: Quick one: CC50 at 24 h for COc1ccc(C(=Cc2cc(C(F)(F)F)ccc2Cl)C(=O)O)cc1 [compound r] ?
Result block: 84

Query block: Requested field: CC50 at 24 h. Item: COc1ccc(C(=Cc2ccc(OC)c(OC)c2Cl)C(=O)O)cc1 [compound t]
Result block: 85
